The measured values listed here are drawn from PubChem BioAssay AID1508601.

Here, each record is paired with measured p53-positive nuclei, normalised data.
assayed system: Cellular tumor antigen p53 (Homo sapiens) (UniProt P04637)
Sequence (P04637 whole entry, looked up): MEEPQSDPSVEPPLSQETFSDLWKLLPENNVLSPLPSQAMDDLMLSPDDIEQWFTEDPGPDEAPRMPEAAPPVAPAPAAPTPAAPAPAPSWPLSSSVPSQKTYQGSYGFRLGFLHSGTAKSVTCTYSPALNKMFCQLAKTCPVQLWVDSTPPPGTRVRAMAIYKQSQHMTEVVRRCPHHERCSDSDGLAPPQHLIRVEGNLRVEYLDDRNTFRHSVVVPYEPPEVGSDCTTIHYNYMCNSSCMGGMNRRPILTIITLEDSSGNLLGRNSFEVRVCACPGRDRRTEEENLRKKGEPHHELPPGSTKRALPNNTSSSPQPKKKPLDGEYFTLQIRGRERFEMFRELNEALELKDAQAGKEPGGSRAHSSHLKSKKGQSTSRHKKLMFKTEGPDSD
assay text: p53 stabilisation in HPV-positive human cells, imaging, p53-positive nuclei imaging, 24 h, 48 h (AID 1508601)
condition label: 24/48 h, Library stock concentration: 10 mM, active compounds read high
The campaign covered roughly 5,700 compounds. About 85 (1%) were called active. This is one part of a sample in which actives are shown more often than they occur.
Please give a number only; it is taken to be in %.

>>> df
                                   molecule                     measure_name  result_value
0  C[C@]12C=CC(=O)C=C1CC[C@@H]1[C@@H]2CC[C@]2(C)OC(=O)CC[C@@H]12  p53-positive nuclei, normalised      -0.00393
1  CC1OC(O[C@H]2CC[C@@]3(C)[C@@H](CC[C@@H]4[C@H]3CC[C@]3(C)[C@@H](C5=CC(=O)OC5)CC[C@]43O)C2)CC(O)C1O (stereo partly drawn)  p53-positive nuclei, normalised            14
2  CC1CN(Cc2ccc(F)cc2)CCN1C(=O)COc1ccc(Cl)cc1NC(N)=O (stereo not drawn)  p53-positive nuclei, normalised        -0.323
3         NOCCC(N)C(=O)O (stereo not drawn)  p53-positive nuclei, normalised       -0.0323
4                             NCCc1ccccc1Br  p53-positive nuclei, normalised        0.0211

So, CN1C(=O)[C@@]23C[C@]4([C@]56C[C@@]78SS[C@@](CO)(C(=O)N7[C@@H]5Nc5ccccc56)N(C)C8=O)c5ccccc5N[C@H]4N2C(=O)[C@]1(CO)SS3 ? Its p53-positive nuclei, normalised was 7.98

Reported p53-positive nuclei, normalised for O=C1C(=O)c2cccc3cccc1c23 was 0.252

Notebook: Cc1sc2c(c1C)C(c1ccc(Cl)cc1)=NC(CC(=O)Nc1ccc(O)cc1)c1nnc(C)n1-2 (stereo not drawn) , p53-positive nuclei, normalised read as 9.67
